Tested on: Wnt4
assay_info: Wnt4 transcript levels by RT-PCR in mouse mammary organoids stimulated ex vivo
Assay type: cell-based
test_conditions: C57Bl/6 mice, 6 h, 20 nM
Each record here notes measured Wnt4 transcript induction.

compound | system_name | Wnt4 transcript induction
CC(=O)O[C@]1(C(C)=O)CC[C@H]2[C@@H]3C=C(Cl)C4=CC(=O)[C@@H]5C[C@@H]5[C@]4(C)[C@H]3CC[C@@]21C [CPA, cyprotherone acetate] | Wnt4 | 2 fold
C#C[C@]1(O)CC[C@H]2[C@@H]3CCC4=CC(=O)CC[C@@H]4[C@H]3C(=C)C[C@@]21CC | Wnt4 | 4.2 fold
C#C[C@]1(O)CC[C@H]2[C@@H]3CCC4=CC(=O)CC[C@@H]4[C@H]3CC[C@@]21CC | Wnt4 | 4.3 fold

###

Tested on: HBECs
assay_info: In vivo growth of intraductal HBEC xenografts measured by radiance
test_conditions: 60 days of treatment, subcutaneous pellets
measurement_type: growth (course of radiance) of engrafted HBECs versus control

molecule | system_name | result
C#C[C@]1(O)CC[C@H]2[C@@H]3CCC4=CC(=O)CC[C@@H]4[C@H]3C(=C)C[C@@]21CC [DSG, 3‐ketodesogestrel] | HBECs | increased growth
C#C[C@]1(O)C=C[C@H]2[C@@H]3CCC4=CC(=O)CC[C@@H]4[C@H]3CC[C@@]21CC [GSN, gestodene] | HBECs | increased growth
C#C[C@]1(O)CC[C@H]2[C@@H]3CCC4=CC(=O)CC[C@@H]4[C@H]3CC[C@@]21CC [LNG, levonorgestrel] | HBECs | increased growth

###

Tested on: AR
assay_info: Percentage of AR+ cells in xenografted HBECs by co-IF for AR and hECAD
Assay type: in vivo, human
test_conditions: 21 days pellets, HBECs from 11 different patients

compound | percentage of AR+ cells (AR index)
CC(=O)[C@H]1CC[C@H]2[C@@H]3CCC4=CC(=O)CC[C@]4(C)[C@H]3CC[C@]12C [progesterone] | decreased
CC(=O)O[C@]1(C(C)=O)CC[C@H]2[C@@H]3C=C(Cl)C4=CC(=O)[C@@H]5C[C@@H]5[C@]4(C)[C@H]3CC[C@@]21C [CPA, cyprotherone acetate] | decreased
C[C@]12CCC(=O)C=C1[C@@H]1C[C@@H]1[C@H]1[C@@H]3[C@@H]4C[C@@H]4[C@@]4(CCC(=O)O4)[C@@]3(C)CC[C@@H]12 [DSP, drospirenone] | decreased
